assay: NCI Yeast Anticancer Drug Screen. Data for the rad50 strain (AID 155);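 note: 0% = growth of vehicle-only cultures of the same strain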; settings: S. cerevisiae rad50 strain growth inhibition; at 50.0 µM; active compounds read high
Compounds without any hit were thinned out: in the full panel of roughly 79,000, 15% have a hit.
Lab note: compare growth inhibition against 20%. Equal or greater, write yes. Smaller, write no.

Would you please look over these solved cases?
Assess whether reported growth inhibition for NC(=O)Nc1ccc([As](Sc2ccccc2C(=O)O)Sc2ccccc2C(=O)O)cc1 sits at 20% or higher.
no

Same question, N#CC(c1ccccc1)N1CCCN(C(C#N)c2ccccc2)C1c1ccc(N(CCCl)CCCl)cc1 (stereo not given) this time
no

Next entry: CC(=O)OC1CCC2C3CCC4C(F)C(=O)C(F)(F)CC4(C)C3CCC12C (stereo not given)
yes

New cases:
// inclusive: growth inhibition at least 20%? input: CC[C@@]1(O)C(=O)OCc2c1cc1n(c2=O)Cc2c-1nc1ccccc1c2Cl
yes

Subsequent entry: c1ccc(C[P+]2(c3ccccc3)CCCCC2)cc1
no

----------
assay: NCI Yeast Anticancer Drug Screen. Data for the bub3 strain (AID 167); conditions: S. cerevisiae bub3 mutant strain, at 50.0 µM
This is part of a sample that, as a whole, favours compounds with a hit. Of some 79,000 tested, about 15% had one in any assay. The source made the active and inactive calls. Rule as the data show it: active = growth inhibition above about 70%; inactive = the rest.
Output constraint: value belongs to TRUE for active, FALSE for inactive

Solved entries (count: 3):
Each compound tested received a call. Report the one for O=C(O)C(F)(F)F.[Ag] .
TRUE

How about this compound: COc1cccc(C2CC23C(=O)NC(=O)NC3=O)c1 (centres undefined)
FALSE

Consider next the compound Nc1c(S(=O)(=O)O)cc(Nc2ccc(S(=O)(=O)O)c(Nc3nc(Cl)nc(Cl)n3)c2)c2c1C(=O)c1ccccc1C2=O in the same way.
FALSE

Others:
Which outcome was entered for the compound COc1ccc(CC(N)c2ccccc2)cc1 (centres undefined) in this test?
FALSE

Request: COc1ccc(CC#N)cc1
FALSE

Entry to check: Nc1nc(N)c2n[nH]nc2n1
FALSE

Another: CCOC(=O)C1C(=O)CN2CCc3c([nH]c4ccccc34)C12C(=O)OCC (centres undefined)
FALSE

Queued: N.N.N.N.N.N.[I-].[Os]
FALSE

And what about the compound O=[N+]([O-])c1ccc([N+](=O)[O-])c2ccccc12 ?
TRUE

----------
assay: NCI Yeast Anticancer Drug Screen. Data for the bub3 strain (AID 167); conditions: S. cerevisiae bub3 mutant strain, at 5.0 µM (retest, dose inferred, filed as 0.5), active compounds read high
Compounds without any hit were thinned out: in the full panel of roughly 79,000, 15% have a hit.
test.readout: growth inhibition (%)
Numbers only, in %.

Check out these entries, answers already filled in.
For Cc1ccc([NH-])cc1C.Cc1ccc([NH-])cc1C.[Cl][Pt+2][Cl] , what is its reported growth inhibition?
-8

Same read-out for C/C=C(\C)C(=O)OC1CC(C)(C)CC2C3=CCC4C5(C)CCC(=O)C(C)(C)C5CCC4(C)C3(C)CCC12C(=O)O (centres undefined) (tested in a mixture with another compound) ?
1

Lab note: each compound below needs its growth inhibition filled in.
1. O=C(CCl)Nc1ccc(Cl)cc1
2. O=Cc1ccccc1O.O=Cc1ccccc1O.[O]=[Mo]=[O]

1: 1; 2: -3

----------
Kindly state growth inhibition for each of the entries shown.
assay: NCI Yeast Anticancer Drug Screen. Data for the sgs1 mgt1 strain (AID 161);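 note: 0% = growth of cultures given vehicle only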; details: S. cerevisiae sgs1 mgt1 strain, at 50.0 µM (retest, dose inferred, filed as 5.0), active compounds read high
The panel holds about 79,000 compounds, 15% with a hit somewhere; the sample as a whole holds those more often.
Numbers only, in %.

Item under review: Cc1cc(N(CCCl)CCCl)ccc1C1N(Cc2ccc(N(CCCl)CCCl)cc2Cl)CCCN1Cc1ccc(N(CCCl)CCCl)cc1Cl . Reported growth inhibition?
95

Next compound: O=[N+]([O-])c1cc(Cl)ccc1S(=O)(=O)F
99

Next up: O=[N+]([O-])c1ccc2c3c(cccc13)CC2
84

Check CC1CCC2(OC1)OC1C(O)C3C4CCC5CC(OC6OC(CO)C(OC7OC(CO)C(O)C(OC8OCC(O)C(O)C8O)C7OC7OC(CO)C(O)C(OC8OC(CO)C(O)C(O)C8O)C7O)C(O)C6O)C(O)CC5(C)C4CCC3(C)C1C2C (configuration not stated) too.
99

Follow-up item: ClC(CN1CCCCC1)C(Cl)c1ccccc1 (configuration not stated)
53

Same question, C[C@@H](O)[C@H]1/C=C/C=C\C(=O)O[C@@H]2C[C@H]3O[C@@H]4[C@@H]5OC5(C)CCC4(COC(=O)[C@H]4O[C@]4(C)[C@@H](O)CO1)[C@]2(C)[C@]31CO1 (some centres not stated) this time
96

Turning now to a further record.
Suppose we examine the compound C[C@]12CC[C@H](OC3OC(CO)C(O)C(O)C3O)C[C@H]1CC[C@@H]1[C@@H]2CC[C@]2(C)[C@@H](C3=CCOC3=O)CC[C@]12O (some centres not stated) ; what growth inhibition value has been reported?
-2

----------
Would you mind telling me the reported growth inhibition of each entry?
assay: NCI Yeast Anticancer Drug Screen. Data for the sgs1 mgt1 strain (AID 161);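 note: 0% = growth of cultures given vehicle only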; settings: S. cerevisiae sgs1 mgt1 strain, at 50.0 µM, active compounds read high
The panel holds about 79,000 compounds, 15% with a hit somewhere; the sample as a whole holds those more often.
One number for each entry, in %.

Some solved entries appear below for comparison.
# query: growth inhibition of entry CC1=C(N2CC2)C(=O)c2nc3n(c2C1=O)CCC3OC(=O)CCl (stereo not given)
72.2

Another: Nc1ccc([As]=[As]c2ccc(N)cc2)cc1 (stereo not given)
50.2

What about this compound? COc1ccc2c3c([nH]c2c1)C(C)N(C)CC3 (stereo not given)
-10.7

Also COc1ccccc1CC(C)NC(C)Cc1ccccc1OC (stereo not given) , if possible.
8.05

Try Cc1cc(C)n(-c2nc3ccccc3c(=O)n2-c2ccccc2)n1 next.
-14.5

Report growth inhibition for every entry below.
1. [Cl][Sn]([Cl])([c]1ccccc1)[c]1ccccc1.c1ccc2nc(-c3ccc4ccccc4n3)ccc2c1
2. CCCCN1C(=O)C(=C/C=C/C=C2\Oc3ccccc3N2CCCS(=O)(=O)O)C(=O)N(CCCC)C1=S
3. O=C(NP(=O)(N1CC1)N1CC1)c1cc(I)ccc1I

1: 75.3; 2: 3.75; 3: 1.25

Quick request: growth inhibition for each listed item, please.
1. CC1OC(O[C@@H]2C=C3CC[C@@H]4[C@H](CC[C@]5(C)[C@@H](c6ccc(=O)oc6)CC[C@]45O)[C@@]3(C)CC2)C(O)C(O)C1O (stereo not given in full)
2. C/C1=N\NC(=O)c2ccccc2C(=O)N/N=C(\C)c2cccc1n2.O=[N+]([O-])[O-].[Zn+2]

[-25, -10.2]

----------
What growth inhibition was measured for each of the following?
experiment: NCI Yeast Anticancer Drug Screen. Data for the mlh1 rad18 strain (AID 175); settings: S. cerevisiae mlh1 rad18 strain growth inhibition; at 50.0 µM; active compounds read high
This is part of a sample that, as a whole, favours compounds with a hit. Of some 79,000 tested, about 15% had one in any assay.
Give bare numbers, in %.

Quick one: growth inhibition of ClCCN(CCCl)c1ccc(/C=N/N2CCN(/N=C/c3ccc(N(CCCl)CCCl)cc3)CC2)cc1 ?
-1.25

Follow-up entry: C[CH2][Pb]([CH2]C)([CH2]C)[O]C(=O)c1ccccc1
5.35

Parameter requested: growth inhibition. Apply to each item below.
1. COc1ccc2c(c1OC)C[C@@H]1c3c(cc4c(c3-2)OCO4)CCN1C
2. O=C(NCCNC(=O)Nc1ccccc1S(=O)(=O)F)Nc1ccccc1S(=O)(=O)F
3. CC1COC(Nc2cccc3c2CCCC3)=N1 (stereo unspecified)
4. CC1(C)SC2C(NC(=O)Cc3ccccc3)C(=O)N2C1C(=O)O (stereo unspecified)

1. -56.5
2. -13
3. 3
4. -9.6

----------
assay: NCI Yeast Anticancer Drug Screen. Data for the cln2 rad14 strain (AID 165);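 note: 0% = growth equal to vehicle treated cultures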; details: S. cerevisiae cln2 rad14 strain, at 50.0 µM, active compounds read high
The panel holds about 79,000 compounds, 15% with a hit somewhere; the sample as a whole holds those more often.
test.readout: growth inhibition (%)
Give bare numbers, in %.

// known answers, use as guide
Tell me the measured growth inhibition of CN1CCC(OC(=O)Oc2ccccc2)(c2ccccc2)CC1 , please.
33.7

Can you handle O=C(Cc1ccccc1)Oc1ccc2c(-c3ccccc3)c(C(=O)Nc3ccc(Cl)cc3)c(=O)oc2c1 next?
2.6

// same read-out, input: C1=CC(N2CCOCC2)CC1 (stereo unspecified)
-45.5

Please state growth inhibition for every compound in the list that follows.
1. C(=C/[PH+](c1ccccc1)c1ccccc1)/[PH+](c1ccccc1)c1ccccc1.[C-]#[O+].[C-]#[O+].[C-]#[O+].[C-]#[O+].[C-]#[O+].[Mo+2].[Mo+4].[c-]1[c-][c-][cH-][c-]1.[c-]1[c-][c-][cH-][c-]1
2. O=[As](O)(O)Cc1cccc(F)c1
3. CC(=O)Nc1ccc(C(=O)O)cc1 (tested in a mixture with another compound)
4. COc1ccc(C=C2C(=O)N(C)C(=O)N(C)C2=O)cc1
5. Cc1c2ccccc2c(CNCCSCCCl)c2ccc3ccccc3c12
6. C[C@@H]1C[C@@]2(O[C@@H]2C)C(=O)O[C@@H]2CCN3CC=C(COC(=O)[C@]1(C)O)[C@H]23
7. CCOP(=O)(OCC)/C(C#N)=C/c1ccc(Br)cc1

1: 92.2; 2: -46.5; 3: 3.65; 4: 22.3; 5: 98.3; 6: 13.3; 7: 91.6

Quick check: growth inhibition of COc1cc2c(c(Oc3ccc(C)cc3)c1)CN(C)CC2 ?
39.7
